Listing: pIC50 of selected compounds
target: PI3Kα (Homo sapiens (Human)); test: Inhibition of PI3Kα efficacy assay (ADP-Glo kinase assay); assay type: biochemical; conditions: Table 4; read-out: PI3Kα inhibitory activity (IC50)
Sequence (P42336 whole entry): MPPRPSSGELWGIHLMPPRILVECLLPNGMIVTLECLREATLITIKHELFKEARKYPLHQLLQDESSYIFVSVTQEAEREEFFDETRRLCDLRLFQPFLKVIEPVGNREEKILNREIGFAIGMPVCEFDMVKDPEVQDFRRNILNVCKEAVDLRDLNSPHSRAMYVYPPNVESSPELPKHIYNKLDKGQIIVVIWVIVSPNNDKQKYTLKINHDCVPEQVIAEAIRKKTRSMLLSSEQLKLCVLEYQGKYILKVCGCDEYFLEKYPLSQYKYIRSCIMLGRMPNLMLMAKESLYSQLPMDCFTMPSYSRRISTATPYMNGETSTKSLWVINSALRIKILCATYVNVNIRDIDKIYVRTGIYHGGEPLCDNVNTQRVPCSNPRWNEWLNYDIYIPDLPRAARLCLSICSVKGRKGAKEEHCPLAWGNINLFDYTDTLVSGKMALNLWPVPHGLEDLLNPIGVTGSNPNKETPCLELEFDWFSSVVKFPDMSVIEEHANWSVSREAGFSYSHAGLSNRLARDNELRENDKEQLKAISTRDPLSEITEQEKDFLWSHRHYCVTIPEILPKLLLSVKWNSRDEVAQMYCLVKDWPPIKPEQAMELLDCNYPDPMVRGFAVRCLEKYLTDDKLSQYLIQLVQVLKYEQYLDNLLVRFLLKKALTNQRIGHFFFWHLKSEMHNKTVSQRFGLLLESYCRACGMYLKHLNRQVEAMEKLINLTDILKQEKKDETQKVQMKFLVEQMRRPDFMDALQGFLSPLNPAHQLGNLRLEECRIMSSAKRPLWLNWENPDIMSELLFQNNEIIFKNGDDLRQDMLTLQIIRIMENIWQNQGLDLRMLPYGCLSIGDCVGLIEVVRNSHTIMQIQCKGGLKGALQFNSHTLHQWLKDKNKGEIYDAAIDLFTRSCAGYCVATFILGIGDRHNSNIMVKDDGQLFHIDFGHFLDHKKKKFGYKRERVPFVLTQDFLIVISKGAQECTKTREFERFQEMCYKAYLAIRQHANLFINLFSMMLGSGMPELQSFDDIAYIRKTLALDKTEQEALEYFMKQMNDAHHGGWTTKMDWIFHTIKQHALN
Sequence (P27986 whole entry partner): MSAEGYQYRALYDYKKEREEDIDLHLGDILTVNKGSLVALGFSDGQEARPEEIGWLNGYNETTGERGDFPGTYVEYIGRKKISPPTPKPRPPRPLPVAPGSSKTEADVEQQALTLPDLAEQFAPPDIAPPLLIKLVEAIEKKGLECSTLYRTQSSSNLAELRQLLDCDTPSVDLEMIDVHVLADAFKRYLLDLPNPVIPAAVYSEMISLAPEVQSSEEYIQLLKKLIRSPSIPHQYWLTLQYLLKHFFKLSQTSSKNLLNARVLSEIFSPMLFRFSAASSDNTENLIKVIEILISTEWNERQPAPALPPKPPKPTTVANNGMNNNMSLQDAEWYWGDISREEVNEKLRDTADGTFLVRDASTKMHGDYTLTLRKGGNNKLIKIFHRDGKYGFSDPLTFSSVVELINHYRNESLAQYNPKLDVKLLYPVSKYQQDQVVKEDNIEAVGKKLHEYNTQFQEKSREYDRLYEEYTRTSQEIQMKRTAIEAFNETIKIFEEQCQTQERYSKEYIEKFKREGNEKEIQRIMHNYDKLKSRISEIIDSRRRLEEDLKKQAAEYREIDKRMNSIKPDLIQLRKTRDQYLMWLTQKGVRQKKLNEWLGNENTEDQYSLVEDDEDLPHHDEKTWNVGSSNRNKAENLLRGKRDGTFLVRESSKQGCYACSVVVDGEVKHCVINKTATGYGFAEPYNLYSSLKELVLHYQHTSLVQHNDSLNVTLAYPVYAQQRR
pIC50: −log10 of the molar value.

{"molecule": "CC(=O)/C=C/C(=O)N1CCN(c2ncnc3ccc(-c4cnc(OC(F)(F)F)c(NS(=O)(=O)c5ccc(F)cc5F)c4)nc23)CC1", "pIC50": 8.85}
{"molecule": "COc1ncc(-c2ccc3ncnc(N4CC5CCC(C4)N5C(=O)/C=C/C(C)=O)c3c2)cc1NS(=O)(=O)c1ccccc1F", "pIC50": 8.23}
{"molecule": "C=C(F)C(=O)N1C2CCC1CN(c1ncnc3ccc(-c4cnc(OC)c(NS(=O)(=O)c5c(F)cc(F)cc5F)c4)cc13)C2", "pIC50": 9.30}
{"molecule": "COc1ncc(-c2ccc3ncnc(N4CC5CCC(C4)N5C(=O)/C=C/C(C)=O)c3c2)cc1NS(=O)(=O)c1ccc(F)cc1", "pIC50": 8.48}
{"molecule": "COc1ccc(Cl)c(S(=O)(=O)Nc2cc(-c3ccc4ncnc(N5CCN(C(=O)/C=C/C(C)=O)CC5)c4c3)cnc2OC)c1", "pIC50": 9.09}
{"molecule": "COc1ncc(-c2ccc3ncnc(C4=CCN(C(=O)/C=C/C(C)=O)CC4)c3n2)cc1NS(=O)(=O)c1ccccc1F", "pIC50": 8.51}

----------
biological target: PI3Kδ (Homo sapiens (Human), UniProt O00329); experiment: Inhibition of PI3Kδ efficacy assay (ADP-Glo kinase assay); format: biochemical; conditions: Table 4; read-out: PI3Kδ inhibitory activity (IC50)
Sequence (O00329 whole entry): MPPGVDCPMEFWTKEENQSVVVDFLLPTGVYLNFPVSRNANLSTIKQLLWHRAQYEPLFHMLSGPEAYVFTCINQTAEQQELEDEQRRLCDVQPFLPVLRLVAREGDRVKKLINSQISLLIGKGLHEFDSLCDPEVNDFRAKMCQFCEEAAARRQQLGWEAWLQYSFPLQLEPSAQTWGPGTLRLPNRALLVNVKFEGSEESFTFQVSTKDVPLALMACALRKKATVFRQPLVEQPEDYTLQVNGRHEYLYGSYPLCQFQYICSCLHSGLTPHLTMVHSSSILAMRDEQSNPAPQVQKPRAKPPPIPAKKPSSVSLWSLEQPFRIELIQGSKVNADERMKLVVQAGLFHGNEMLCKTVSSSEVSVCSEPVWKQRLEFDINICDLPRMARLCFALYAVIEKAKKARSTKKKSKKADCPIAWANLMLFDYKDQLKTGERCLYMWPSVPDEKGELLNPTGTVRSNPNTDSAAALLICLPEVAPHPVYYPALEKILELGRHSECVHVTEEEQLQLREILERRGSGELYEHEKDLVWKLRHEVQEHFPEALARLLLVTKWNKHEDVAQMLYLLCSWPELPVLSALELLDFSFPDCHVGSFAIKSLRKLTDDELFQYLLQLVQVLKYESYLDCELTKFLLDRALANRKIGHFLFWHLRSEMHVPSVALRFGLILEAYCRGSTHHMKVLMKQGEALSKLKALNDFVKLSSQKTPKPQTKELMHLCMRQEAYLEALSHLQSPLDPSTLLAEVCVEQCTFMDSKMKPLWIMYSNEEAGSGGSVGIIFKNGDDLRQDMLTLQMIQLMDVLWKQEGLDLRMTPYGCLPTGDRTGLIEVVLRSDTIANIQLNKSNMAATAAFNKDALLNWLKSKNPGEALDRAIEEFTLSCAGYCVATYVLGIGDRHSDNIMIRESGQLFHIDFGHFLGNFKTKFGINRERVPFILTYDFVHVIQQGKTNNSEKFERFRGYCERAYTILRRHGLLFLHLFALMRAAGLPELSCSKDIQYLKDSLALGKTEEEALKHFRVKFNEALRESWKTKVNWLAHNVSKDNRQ
Sequence (P27986 whole entry partner): as the sequence (P27986 whole entry partner) above
pIC50: −log10 of the molar value.
Listing: pIC50 of selected compounds
metric: pIC50

{"molecule": "CC(=O)/C=C/C(=O)N1CCN(c2ncnc3ccc(-c4cnc(OCC(F)(F)F)c(NS(=O)(=O)c5ccc(F)cc5F)c4)cc23)CC1", "value_observed": 7.04}
{"molecule": "COc1ncc(-c2ccc3ncnc(N4CCN(C(=O)/C=C/C(C)=O)CC4)c3c2)cc1NS(=O)(=O)c1ccc(F)cc1Cl", "value_observed": 7.72}
{"molecule": "COc1ncc(-c2ccc3ncnc(C4=CCN(C(=O)/C=C/C(C)=O)CC4)c3c2)cc1NS(=O)(=O)c1c(F)cccc1Cl", "value_observed": 7.55}
{"molecule": "COc1ncc(-c2ccc3ncnc(N4CCN(C(=O)/C=C/C(C)=O)CC4)c3c2)cc1NS(=O)(=O)c1ccc(Cl)cc1F", "value_observed": 7.72}
{"molecule": "[2H]C([2H])([2H])Oc1ncc(-c2ccc3ncnc(N4CCN(C(=O)/C=C/C(C)=O)CC4)c3c2)cc1NS(=O)(=O)c1ccc(F)cc1F", "value_observed": 7.78}
{"molecule": "COc1ncc(-c2ccc3ncnc(N4CCC5(CC4)CN(C(=O)/C=C/C(C)=O)C5)c3c2)cc1NS(=O)(=O)c1ccccc1F", "value_observed": 7.97}

----------
tested on: MIA PaCa-2 cells (KRAS G12C mutant); experiment: MIA PaCa-2 cell anti-proliferation (CellTiter-Glo); format: cell-based; conditions: Homo sapiens, 72 h; MIA Paca-2 cells, 3 days, Table 7; read-out: MIA PaCa-2 (IC50)
Records here are stratified by IC50; strata: lower segment: < 20 nM; middle segment: ≥ 20 nM and < 70 nM; upper segment: ≥ 70 nM

{"molecule": "COc1ncc(-c2ccc3ncnc(C4CCN(C(=O)/C=C/C(C)=O)CC4)c3n2)cc1NS(=O)(=O)c1ccc(F)cc1F", "tested_target": "MIA PaCa-2 cells (KRAS G12C mutant)", "classification": "lower segment"}
{"molecule": "COc1ncc(-c2ccc3ncnc(N4CCN(C(=O)/C=C/C(C)=O)CC4)c3c2)cc1NS(=O)(=O)c1sc(C)nc1C", "tested_target": "MIA PaCa-2 cells (KRAS G12C mutant)", "classification": "middle segment"}
{"molecule": "COc1ncc(-c2ccc3ncnc(N4CCN(C(=O)/C=C/C(C)=O)CC4)c3n2)cc1NS(=O)(=O)c1cc(F)ccc1F", "tested_target": "MIA PaCa-2 cells (KRAS G12C mutant)", "classification": "middle segment"}
{"molecule": "CC(=O)/C=C/C(=O)N1CCN(c2ncnc3ccc(-c4cnc(Cl)c(NS(=O)(=O)c5c(F)cc(F)cc5F)c4)cc23)CC1", "tested_target": "MIA PaCa-2 cells (KRAS G12C mutant)", "classification": "upper segment"}
{"molecule": "COc1ncc(-c2ccc3ncnc(N4CCN(C(=O)/C=C/C(C)=O)CC4)c3c2)cc1NS(=O)(=O)c1ccncc1C", "tested_target": "MIA PaCa-2 cells (KRAS G12C mutant)", "classification": "upper segment"}
{"molecule": "COc1ncc(-c2ccc3ncnc(N4CCN(C(=O)/C=C/C(C)=O)CC4)c3c2)cc1NS(=O)(=O)c1cc(F)ccc1F", "tested_target": "MIA PaCa-2 cells (KRAS G12C mutant)", "classification": "middle segment"}
{"molecule": "COc1ncc(-c2ccc3ncnc(N4CCC5(CC4)CN(C(=O)/C=C/C(C)=O)C5)c3n2)cc1NS(=O)(=O)c1c(F)cccc1F", "tested_target": "MIA PaCa-2 cells (KRAS G12C mutant)", "classification": "lower segment"}
{"molecule": "COc1ncc(-c2ccc3ncnc(N4CCN(C(=O)/C=C/C(C)=O)C[C@@H]4C)c3c2)cc1NS(=O)(=O)c1sc(C)nc1C", "tested_target": "MIA PaCa-2 cells (KRAS G12C mutant)", "classification": "lower segment"}
{"molecule": "COc1ncc(-c2ccc3ncnc(C4CCN(C(=O)/C=C/C(C)=O)CC4)c3n2)cc1NS(=O)(=O)c1ccccc1F", "tested_target": "MIA PaCa-2 cells (KRAS G12C mutant)", "classification": "lower segment"}
{"molecule": "COc1ncc(-c2ccc3ncnc(N4CC5CCC(C4)N5C(=O)/C=C/C(C)=O)c3c2)cc1NS(=O)(=O)c1ccc(F)cc1F", "tested_target": "MIA PaCa-2 cells (KRAS G12C mutant)", "classification": "middle segment"}
{"molecule": "COc1ncc(-c2ccc3ncnc(N4CCN(C(=O)/C=C/C(C)=O)CC4)c3c2)cc1NS(=O)(=O)c1ccc(Cl)cc1F", "tested_target": "MIA PaCa-2 cells (KRAS G12C mutant)", "classification": "middle segment"}
{"molecule": "COc1ncc(-c2ccc3ncnc(N4CCN(C(=O)/C=C/C(C)=O)CC4)c3c2)cc1NS(=O)(=O)c1ccc(F)c2ccccc12", "tested_target": "MIA PaCa-2 cells (KRAS G12C mutant)", "classification": "upper segment"}
